assay: liver-stage malaria parasite growth inhibition, primary screen, cell-based, HepG2, luciferase luminescence, HepG2 viability (AID 624349);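 further: 100% = mean of DMSO negative control wells on the same plate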; conditions: P. berghei liver stage in HepG2, luciferase luminescence, concentration not given here; measured here: HepG2 viability without parasites

| compound | viability / % |
| --- | --- |
| CC(=O)O[C@@H]1CC2C(C)(C)C(=O)C=C[C@]2(C)C2CC[C@@]3(C)[C@H](c4ccoc4)OC(=O)[C@H]4O[C@]43[C@@]21C (stereo partly specified) | 98.4 |
| CO/N=C(/C(=O)NC1C(=O)N2C(C(=O)OC(C)OC(C)=O)=C(COC(N)=O)CSC12)c1ccco1 (stereo unspecified) | 138 |
| CC(C)NC[C@H](O)COc1ccc(CC(N)=O)cc1 | 102 |
| CCC(C)(C)N=C(NC#N)Nc1cccnc1 | 69.3 |
| CCCCCN=C(N)NN=Cc1c[nH]c2ccc(OC)cc12 | 3.78 |
| CCOC(=O)Nc1nc2ccccc2[nH]1 | 103 |
| C[C@H]1CC2C([C@@H](O)C[C@@]3(C)C2CC[C@]3(O)C(=O)COC(=O)CCC(=O)O)[C@@]2(C)C=CC(=O)C=C12 (stereo partly specified) | 148 |
| CC(=O)OCC(=O)C12OC3(CCCC3)OC1CC1C3CCC4=CC(=O)C=CC4(C)C3(F)C(O)CC12C (stereo unspecified) | 95.1 |
| CCCCCC(O)C1C(=O)OC(C)C(O)/C=C/C=C/C=C/C=C/C=C(\C)C(O)CC(O)CC(O)CC(O)CC(O)CC(O)CC1O (stereo unspecified) | 94.9 |
| CC(C)(CO)C(O)C(=O)NCCCO (stereo unspecified) | 105 |
| CC1c2cccc(O)c2C(O)=C2C(=O)[C@]3(O)C(O)=C(C(N)=O)C(=O)[C@@H](N(C)C)[C@@H]3C[C@@H]21 (stereo partly specified) | 97.3 |
| CO[C@H]1/C=C/O[C@@]2(C)Oc3c(C)c(O)c4c(O)c(c(C=NN5CCN(C)CC5)c(O)c4c3C2=O)NC(=O)/C(C)=C\C=C\[C@H](C)[C@H](O)[C@@H](C)[C@@H](O)[C@@H](C)[C@H](OC(C)=O)[C@@H]1C | 94.3 |
| CS(=O)(=O)c1ccc(C(O)[C@H](CF)NC(=O)C(Cl)Cl)cc1 (stereo partly specified) | 102 |
| Nc1nc(F)nc2c1ncn2[C@@H]1O[C@H](COP(=O)(O)O)[C@@H](O)[C@@H]1O | 105 |
| O=C(Nc1ccccc1)c1ccccc1O | 101 |
| Nc1ncnc2c1ncn2[C@@H]1O[C@H](CO)C[C@@H]1O | 93.2 |
| OC[C@H]1OC([S-])[C@H](O)[C@@H](O)[C@@H]1O.[Au+] (stereo partly specified) | 97.6 |
| OC[C@@H](O)C(O[C@@H]1O[C@H](CO)[C@H](O)[C@H](O)[C@H]1O)[C@H](O)[C@@H](O)CO (stereo partly specified) | 99.9 |
| Fc1ccc(C2CCNCC2COc2ccc3c(c2)OCO3)cc1 (stereo unspecified) | 0.26 |
| CCCCCCCCCCCCCCCC(=O)OC[C@H](NC(=O)C(Cl)Cl)[C@H](O)c1ccc([N+](=O)[O-])cc1 | 134 |
| O=Nc1c(-c2c(O)[nH]c3cc(Br)ccc23)[nH]c2ccccc12 | 92.7 |
| Cc1ccccc1C(=O)c1ccc(Nc2ccc(Br)cc2N)cc1Cl | 76.7 |
| Cn1nnnc1SCC1=C(C(=O)O)N2C(=O)C(NC(=O)C(O)c3ccccc3)C2SC1 (stereo unspecified) | 86 |
| C=CC[C@@H]1C=C(C)C[C@H](C)C[C@H](OC)[C@H]2O[C@@](O)(C(=O)C(=O)N3CCCC[C@H]3C(=O)O[C@H](/C(C)=C/[C@@H]3CC[C@@H](O)[C@H](OC)C3)[C@H](C)[C@@H](O)CC1=O)[C@H](C)C[C@@H]2OC | 72.5 |
| C[C@@H](N)C1CCC(C(=O)Nc2ccncc2)CC1 (stereo partly specified) | 142 |
| O=c1[nH]c(=O)n(C2CC(O)C(CO)O2)cc1F (stereo unspecified) | 115 |
